Reference source: the supplement of paper PMC13207355

Test system: E28 (patient-derived glioblastoma stem cells of classical subtype)
testSummary: phenotypic distance (Euclidean, principal components) from DMSO controls (arbitrary units); higher = stronger morphological change
conditionLabel: 4.1 nM; exposure time: 72 h
Structures can show the parent of a compound that is named as a salt.
Here, each record is paired with measured phenotypic distance data.
recordedEndpoint: phenotypic distance

1) COc1c(N2CCNC(C)C2)c(F)cc2c(=O)c(C(=O)O)cn(C3CC3)c12 (centres undefined); 0.347
2) Nc1ccn([C@@H]2O[C@H](CO)[C@@H](O)[C@@H]2O)c(=O)n1; 1.71
3) CCCCC(CC)CNC(=N)NC(=N)NCCCCCCNC(=N)NC(=N)NCC(CC)CCCC (centres undefined) [Alexidine dihydrochloride]; 1.07
4) Cc1[nH]nc(C(F)(F)F)c1Cc1sc2c(c1C(=O)N1C[C@](C)(O)CO1)c(=O)n(C)c(=O)n2C(C)C; 1.93

====

System: E21 (patient-derived glioblastoma stem cells of mesenchymal subtype)
testSummary: surviving fraction (nuclei count normalised to DMSO); higher = more cells surviving (less toxic)
conditionLabel: 4.1 nM; exposure time: 72 h
Structures can show the parent of a compound that is named as a salt.
Binning of surviving fraction into classes: low-valued (below 0.9), mid-valued (0.9 to below 1), high-valued (1 or more)

1) Cc1ccc(NC(=O)c2ccc3c(c2)OCCO3)cc1NC(=O)c1ccc2nc(OCCN3CCCC3)ccc2c1; low-valued
2) COC(=O)Nc1nc2cc(C(=O)c3ccc(F)cc3)ccc2[nH]1; high-valued
3) Cc1cc(Nc2cc(N3CCN(C)CC3)nc(Sc3ccc(NC(=O)C4CC4)cc3)n2)n[nH]1; low-valued
4) CC[C@@]1(O)C(=O)OCc2c1cc1n(c2=O)Cc2cc3c(CN(C)C)c(O)ccc3nc2-1; low-valued
5) COc1ccc2c(c1)CC[C@@H]1[C@@H]2CC[C@]2(C)[C@@H](NCCCCCCN3C(=O)CCC3=O)CC[C@@H]12; high-valued
6) O=C(Oc1cccc2cccnc12)c1ccccc1; mid-valued
7) Cc1cc(Nc2cc(CN3CCOCC3)c3nc(C)c(Cc4ccc(Cl)cc4F)n3n2)n[nH]1; high-valued
8) O=c1[nH]c(=O)n([C@H]2C[C@H](O)[C@@H](CO)O2)cc1I; mid-valued
9) CCN(CC)Cc1ccc(C(=O)N(CCc2ccccc2OC)[C@@H]2CCNC2)cc1; mid-valued
10) C#C[C@]1(O)CC[C@H]2[C@@H]3CCC4=CCCC[C@@H]4[C@H]3CC[C@@]21C; high-valued
11) CCCCCCNC(=O)n1cc(F)c(=O)[nH]c1=O; mid-valued
12) O=C1CC[C@@H](C(=O)N2CSC[C@H]2C(=O)O)N1; mid-valued
13) CCCCCCCCCCCCCCCC[N+](C)(C)CCN(Cc1ccc(OC)cc1)c1ncccn1 [Thonzonium bromide]; mid-valued
14) Cc1c(-c2ccc(-c3ccccc3F)cc2)nc2ccc(F)cc2c1C(=O)O [Brequinar sodium salt hydrate]; mid-valued
15) OCCN1CCN(CCCN2c3ccccc3Sc3ccc(C(F)(F)F)cc32)CC1 [Fluphenazine dihydrochloride]; mid-valued
16) COC(=O)Nc1nc2cc(Sc3ccccc3)ccc2[nH]1; high-valued
17) CC(=O)[C@]1(O)Cc2c(O)c3c(c(O)c2[C@@H](O[C@H]2C[C@H](N)[C@H](O)[C@H](C)O2)C1)C(=O)c1ccccc1C3=O; low-valued
18) CC1(C)S[C@@H]2[C@H](NC(=O)Cc3ccccc3)C(=O)N2[C@H]1C(=O)O [Benzylpenicillin sodium]; high-valued
19) O=C(C1CC1)N1CC[C@@H](Cc2n[nH]c(=O)n2-c2ccc(-c3ccc4occc4c3)cc2)C1; low-valued
20) CCCCC(CC)CNC(=N)NC(=N)NCCCCCCNC(=N)NC(=N)NCC(CC)CCCC (stereo not drawn) [Alexidine dihydrochloride]; mid-valued
21) CC(C)(C)C1CCN(C(=O)n2ncc(C(O)(c3ccccc3)c3ccccc3)n2)CC1; mid-valued
22) Nc1ccn([C@@H]2O[C@H](CO)[C@@H](O)C2(F)F)c(=O)n1 [Gemcitabine HCl]; low-valued
23) CC(C)C[C@H]1C(=O)N2CCC[C@H]2[C@]2(O)O[C@](NC(=O)[C@@H]3C=C4c5cccc6[nH]c(Br)c(c56)C[C@H]4N(C)C3)(C(C)C)C(=O)N12 [Bromocryptine mesylate]; high-valued
24) CC(NCCC(c1ccccc1)c1ccccc1)c1ccccc1 (stereo not drawn) [Fendiline hydrochloride]; high-valued
25) NC(=O)c1ccccc1 [Benzamide]; high-valued

====

Here, each record is paired with measured phenotypic distance data.
System: E34 (patient-derived glioblastoma stem cells of proneural subtype)
testSummary: phenotypic distance (Euclidean, principal components) from DMSO controls (arbitrary units); higher = stronger morphological change
conditionLabel: 333.3 nM; exposure time: 72 h
recordedEndpoint: phenotypic distance

1. CCCCCCNC(=O)n1cc(F)c(=O)[nH]c1=O; 0.621
2. COc1ccc2c(c1)CC[C@@H]1[C@@H]2CC[C@]2(C)[C@@H](NCCCCCCN3C(=O)CCC3=O)CC[C@@H]12; 0.968
3. COc1cc2c(cc1O)CC[C@@H]1[C@@H]2CC[C@]2(C)[C@@H](O)CC[C@@H]12; 0.508
4. CC(C)C(=O)OCC(=O)[C@@]12O[C@H](C3CCCCC3)O[C@@H]1C[C@H]1[C@@H]3CCC4=CC(=O)C=C[C@]4(C)[C@H]3[C@@H](O)C[C@@]12C [Ciclesonide]; 1.12
5. Cc1nc2ccccn2c(=O)c1CCN1CCC(C(=O)c2ccc(F)cc2)CC1; 0.636
6. C[C@@H](O[C@H]1OCCN(Cc2n[nH]c(=O)[nH]2)[C@H]1c1ccc(F)cc1)c1cc(C(F)(F)F)cc(C(F)(F)F)c1 [Aprepitant]; 0.573
7. CC(=O)OC[C@H]1O[C@@H]([S-])[C@H](OC(C)=O)[C@@H](OC(C)=O)[C@@H]1OC(C)=O.CCP(CC)CC.[Au+]; 1.04
8. COc1cc(/C=C/C(=O)N2CCC=CC2=O)cc(OC)c1OC; 0.524
9. COc1ccc([C@@H]2CC(=O)c3c(O)cc(O[C@@H]4O[C@H](CO[C@@H]5O[C@@H](C)[C@H](O)[C@@H](O)[C@H]5O)[C@@H](O)[C@H](O)[C@H]4O)cc3O2)cc1O; 0.595

====

System: E13 (patient-derived glioblastoma stem cells of classical subtype)
testSummary: surviving fraction (nuclei count normalised to DMSO); higher = more cells surviving (less toxic)
conditionLabel: 333.3 nM; exposure time: 72 h
Binning of surviving fraction into classes: range A: < 0.5; range B: ≥ 0.5 and < 1; range C: ≥ 1

1) Nc1ccn([C@@H]2O[C@H](CO)[C@@H](O)[C@@H]2O)c(=O)n1; range A
2) CC[C@@]1(O)C(=O)OCc2c1cc1n(c2=O)Cc2cc3c(CN(C)C)c(O)ccc3nc2-1; range A
3) O=C1CC[C@@H](C(=O)N2CSC[C@H]2C(=O)O)N1; range C
4) OCCN1CCN(CCCN2c3ccccc3Sc3ccc(Cl)cc32)CC1; range B
5) Cc1cc(/C=C/c2ccc3cc(N(C)C)ccc3[n+]2C)c(C)n1-c1ccccc1 [Pyrvinium pamoate]; range A
6) Nc1ccc(-c2ccc3ncc4ccc(=O)n(-c5cccc(C(F)(F)F)c5)c4c3c2)cn1; range A

====

Tested on: E57 (patient-derived glioblastoma stem cells of mesenchymal subtype)
testSummary: surviving fraction (nuclei count normalised to DMSO); higher = more cells surviving (less toxic)
conditionLabel: 4.1 nM; exposure time: 72 h
Counter-ions that a name gives are not always drawn.
Given measured surviving fraction, output met if it is greater than or equal to 1 and not met if not.

1. COc1cc2c(cc1-c1c(C)noc1C)ncc1[nH]c(=O)n([C@H](C)c3ccccn3)c12; met
2. Nc1ccn([C@@H]2O[C@H](CO)[C@@H](O)C2(F)F)c(=O)n1 [Gemcitabine HCl]; not met
3. CC(C)C[C@@H](C(=O)N[C@H](C(=O)OC1CCCC1)c1ccccc1)[C@H](O)C(=O)NO [Tosedostat]; not met
4. CCCCC1C(=O)N(c2ccccc2)N(c2ccc(O)cc2)C1=O (centres undefined) [Oxyphenbutazone]; met
5. CN(C)CCN(Cc1ccc(Cl)cc1)c1ccccn1 [Chloropyramine hydrochloride]; not met
6. C#C[C@]1(O)CC[C@H]2[C@@H]3CCC4=CCCC[C@@H]4[C@H]3CC[C@@]21C [Lynestrenol]; met
7. Cn1nnc2c(C(N)=O)ncn2c1=O [Temozolomide]; not met

====

Test system: E31 (patient-derived glioblastoma stem cells of proneural subtype)
testSummary: surviving fraction (nuclei count normalised to DMSO); higher = more cells surviving (less toxic)
conditionLabel: 4.1 nM; exposure time: 72 h
Structures can show the parent of a compound that is named as a salt.
Given measured surviving fraction, output label 1 if it is greater than or equal to 0.9 and label 0 if not.

1. CC[C@@]1(O)C(=O)OCc2c1cc1n(c2=O)Cc2cc3c(CN(C)C)c(O)ccc3nc2-1; label 0
2. CC(=O)[C@]1(O)Cc2c(O)c3c(c(O)c2[C@@H](O[C@H]2C[C@H](N)[C@H](O)[C@H](C)O2)C1)C(=O)c1ccccc1C3=O; label 0
3. Clc1ccc(CSC(Cn2ccnc2)c2ccc(Cl)cc2Cl)cc1 (centres undefined) [Sulconazole nitrate]; label 1
4. CC(C)C[C@H]1C(=O)N2CCC[C@H]2[C@]2(O)O[C@](NC(=O)[C@@H]3C=C4c5cccc6[nH]c(Br)c(c56)C[C@H]4N(C)C3)(C(C)C)C(=O)N12 [Bromocryptine mesylate]; label 1
5. COc1cc2ncnc(Nc3cccc(Br)c3)c2cc1OC; label 1
6. Nc1ccc(-c2ccc3ncc4ccc(=O)n(-c5cccc(C(F)(F)F)c5)c4c3c2)cn1; label 0
7. Cc1c2ccncc2c(C)c2c1[nH]c1ccccc12; label 1
8. OCCN1CCN(CCCN2c3ccccc3Sc3ccc(Cl)cc32)CC1; label 1
9. COc1cccc2c(NCc3ccccc3)nc(-n3c(N)nc4ccccc43)nc12; label 1
